Entries and their fold induction at 0.3 µM values follow.
# System: T-cell
# measurementDescription: IL-2 secretion from T-cells co-stimulated with anti-CD3 and anti-CD28 antibody (Biological Example 2)
# Format: cell-based, human
# conditionsUsed: Homo sapiens, T-cell, 0.3 μM Cbl-b inhibitor; fold change over baseline (anti-CD3/anti-CD28 stimulated T-cells without inhibitor); read-out: IL-2 secretion Anti-CD3/Anti-CD28 stimulation

// query I have this compound here, C[C@H](c1cc2c(c(C(F)(F)F)c1)CN(c1cccc(C3([C@@H](F)c4nncn4C)COC3)c1)C2=O)N1CCC2(CC2)C1 [Example 576] , and I need its recorded fold induction at 0.3 µM.
// result > 7.5

// query Need fold induction at 0.3 µM, item Cn1cnnc1CC1(c2cccc(N3Cc4c(cc(CN5CCC6(CC5)CC6)cc4C(F)(F)F)C3=O)c2)COC1 [Example 641]
// result > 7.5

// query fold induction at 0.3 µM value for entry Cn1cnnc1CC1(c2cccc(N3Cc4c(cc(N5CCNC6(CC6)C5)cc4C(F)(F)F)C3=O)c2)COC1 [Example 582]
// result > 7.5

----------
// reported IC50 per item
# assayedSystem: Cbl-b (Homo sapiens, UniProt Q13191)
# Sequence (Q13191 36-427): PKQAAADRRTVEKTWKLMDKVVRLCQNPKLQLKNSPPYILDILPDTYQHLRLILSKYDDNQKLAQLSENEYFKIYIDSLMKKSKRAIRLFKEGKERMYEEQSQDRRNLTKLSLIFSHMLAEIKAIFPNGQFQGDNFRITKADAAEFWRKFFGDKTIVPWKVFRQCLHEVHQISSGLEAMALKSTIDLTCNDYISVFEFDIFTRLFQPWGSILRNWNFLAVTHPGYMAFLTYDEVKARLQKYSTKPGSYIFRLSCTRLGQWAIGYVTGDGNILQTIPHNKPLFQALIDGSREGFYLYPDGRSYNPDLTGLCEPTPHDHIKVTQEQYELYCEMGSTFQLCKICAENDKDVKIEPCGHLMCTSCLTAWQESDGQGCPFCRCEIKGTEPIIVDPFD
# measurementDescription: Cbl-b inhibition assay (Cbl-b activity assay, FRET, Biological Example 1; 100 mM NaCl, 60 nM Src kinase)
# Type: biochemical
# conditionsUsed: upper bound stated in text lists; read-out: IC50 values in the Cbl-b inhibition assay of Biological Example 1

The following compounds have reported results that may help.
compound="C[C@H](Sc1nncn1C)c1ccc(F)c(NC(=O)c2ccc3ccccc3n2)c1 [Compound 96a]" attributemeasured=IC50 assayresult="≤ 10000 nM"
compound=Cc1cc(C(=O)Nc2cccc([C@H]3C[C@H]3c3nncn3C)c2)nc(C2CC2)n1 attributemeasured=IC50 assayresult="≤ 300 nM"
compound=Cn1cnnc1-c1cnn(C)c1-c1cccc(N2Cc3c(cccc3C(F)(F)F)C2=O)c1 attributemeasured=IC50 assayresult="≤ 300 nM"
compound="CC(c1cc2c(c(C(F)(F)F)c1)CN(c1cccc([C@H]3C[C@H]3c3nncn3C)c1)C2=O)N1CC[C@H](F)C1 (stereo partly drawn)" attributemeasured=IC50 assayresult="≤ 100 nM"
compound=Cn1cnnc1CC1(c2cccc(N3Cc4c(cc(CN5CCCC5)nc4C4CC4)C3=O)c2)COC1 attributemeasured=IC50 assayresult="≤ 100 nM"

Now look at this entry.
// query Query: IC50; subject: `Cn1cnnc1CC1(c2cccc(NC(=O)c3cc(Cn4ccnn4)nc(C4CC4)n3)c2)COC1`
// result ≤ 100 nM

----------
# Test system: T-cell
# measurementDescription: IL-2 secretion from T-cells co-stimulated with anti-CD3 and anti-CD28 antibody (Biological Example 2)
# Type: cell-based, human
# conditionsUsed: Homo sapiens, T-cell, 1 μM compound; primary human total T-cells; baseline = anti-CD3/anti-CD28 stimulated cells without inhibitor; read-out: IL-2 secretion, Anti-CD3/Anti-CD28 stimulation, fold change over baseline
attributeMeasured: fold induction at 1 µM

molecule=Cc1conc1CC1(c2cccc(NC(=O)c3cc(CN4CC[C@H](O)C4)nc(C4CC4)n3)c2)COC1 assayedsystem=T-cell assayresult="> 7.5"
molecule=Cn1cnnc1CC1(c2cccc(N3Cc4c(cc(CN5CCOCC5)cc4C(F)(F)F)C3=O)c2)COC1 assayedsystem=T-cell assayresult="> 7.5"
molecule=Cn1cnnc1C(F)(F)[C@](C)(F)c1cccc(N2Cc3c(cc(CN4C[C@@H](F)[C@@H](F)C4)cc3C(F)(F)F)C2=O)c1 assayedsystem=T-cell assayresult="5 to 7.5"

// query Form field: reported fold induction at 1 µM of Cn1cnnc1CC1(c2cccc(N3Cc4c(cc(CN5CCC(C)(F)C5)cc4C(F)(F)F)C3=O)c2)COC1 (stereo not shown)
// result > 7.5
